- target: human MC3R (human, UniProt P41968 1-323)
- Sequence (P41968 whole entry): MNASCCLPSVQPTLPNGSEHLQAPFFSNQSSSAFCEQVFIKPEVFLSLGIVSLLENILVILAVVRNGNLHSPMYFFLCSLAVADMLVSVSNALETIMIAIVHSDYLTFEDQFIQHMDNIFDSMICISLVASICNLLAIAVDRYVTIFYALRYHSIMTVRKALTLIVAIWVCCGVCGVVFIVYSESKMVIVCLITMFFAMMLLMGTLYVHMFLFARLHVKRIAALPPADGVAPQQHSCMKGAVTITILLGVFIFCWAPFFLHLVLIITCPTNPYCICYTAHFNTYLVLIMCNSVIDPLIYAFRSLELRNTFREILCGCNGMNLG
- methodNotes: cell-based or functional assay
Non-standard residues stand in square brackets, D forms with d. PKcap2 = N-terminal cap Aryl(4-I)-Gly-mPEG2; Phe(4-I) = N[C@@H](Cc1ccc(I)cc1)C(=O)O; Nle = CCCC[C@H](N)C(=O)O; Aib = CC(C)(N)C(=O)O
A collection of binders and their measured MC3R cAMP (EC50)
Numeric answer only, unit nM assumed.

Some solved entries appear below for comparison.
binder="H-[dY]V[Nle][dA]H[Phe(4-I)]R[dW]D-NH2 (SMILES CCCC[C@H](NC(=O)[C@@H](NC(=O)[C@H](N)Cc1ccc(O)cc1)C(C)C)C(=O)N[C@H](C)C(=O)N[C@@H](Cc1c[nH]cn1)C(=O)N[C@@H](Cc1ccc(I)cc1)C(=O)N[C@@H](CCCNC(=N)N)C(=O)N[C@H](Cc1c[nH]c2ccccc12)C(=O)N[C@@H](CC(=O)O)C(N)=O) [CTX-1171]" valueunits=nM reportedresult=54
binder="H-YV[Nle][dA]H[dF]R[dW]D-NH2 (SMILES CCCC[C@H](NC(=O)[C@@H](NC(=O)[C@@H](N)Cc1ccc(O)cc1)C(C)C)C(=O)N[C@H](C)C(=O)N[C@@H](Cc1c[nH]cn1)C(=O)N[C@H](Cc1ccccc1)C(=O)N[C@@H](CCCNC(=N)N)C(=O)N[C@H](Cc1c[nH]c2ccccc12)C(=O)N[C@@H](CC(=O)O)C(N)=O) [CTX-1109]" valueunits=nM reportedresult=13.1
binder="PKcap2-GV[Nle][dA]HFR[dW]DRFG-OH [CTX-1150]" valueunits=nM reportedresult=2.9
binder="YVXAHFRWDRFG (Nle at 3; D-Ala at 4; Phe(4-I) at 6; D-Trp at 8) [CTX-2122]" valueunits=nM reportedresult=3.2
binder="Ac-[Nle][Aib]HFR[dW]DRFG-OH (SMILES CCCC[C@H](NC(C)=O)C(=O)NC(C)(C)C(=O)N[C@@H](Cc1c[nH]cn1)C(=O)N[C@@H](Cc1ccccc1)C(=O)N[C@@H](CCCNC(=N)N)C(=O)N[C@H](Cc1c[nH]c2ccccc12)C(=O)N[C@@H](CC(=O)O)C(=O)N[C@@H](CCCNC(=N)N)C(=O)N[C@@H](Cc1ccccc1)C(=O)NCC(=O)O) [CTX-1143]" valueunits=nM reportedresult=13.4
binder="YVXAHFRWDRFG (Nle at 3; D-Ala at 4; Phe(4-Br) at 6; D-Trp at 8) [CTX-2120]" valueunits=nM reportedresult=2.3

# query: MC3R cAMP (EC50) of entry H-YVEGHFR[dW]DRFG-NH2 (SMILES CC(C)[C@H](NC(=O)[C@@H](N)Cc1ccc(O)cc1)C(=O)N[C@@H](CCC(=O)O)C(=O)NCC(=O)N[C@@H](Cc1c[nH]cn1)C(=O)N[C@@H](Cc1ccccc1)C(=O)N[C@@H](CCCNC(=N)N)C(=O)N[C@H](Cc1c[nH]c2ccccc12)C(=O)N[C@@H](CC(=O)O)C(=O)N[C@@H](CCCNC(=N)N)C(=O)N[C@@H](Cc1ccccc1)C(=O)NCC(N)=O) [CTX-1105]
20
